System: Escherichia coli TOP10
Test: shrunken log2 fold change of peptide-encoding DNA abundance (4.5 h post-induction vs induction); higher = less antimicrobial activity (less host growth inhibition)
Conditions: time post-induction: 4.5 h; library: site-saturation at positions 5, 18, 19, 20
Measured attribute: shrunken log2 fold change
Give bare numbers.

{"Construct sequence": "RRIRVRPPRLPRPRPRPTSVPRP", "Measured attribute": "shrunken log2 fold change", "Measurement": -0.0603}
{"Construct sequence": "RRIRHRPPRLPRPRPRPAVVPRP", "Measured attribute": "shrunken log2 fold change", "Measurement": -0.182}
{"Construct sequence": "RRIRIRPPRLPRPRPRPVFHPRP", "Measured attribute": "shrunken log2 fold change", "Measurement": -0.936}
{"Construct sequence": "RRIRIRPPRLPRPRPRPFPFPRP", "Measured attribute": "shrunken log2 fold change", "Measurement": -1.39}
{"Construct sequence": "RRIRVRPPRLPRPRPRPTSEPRP", "Measured attribute": "shrunken log2 fold change", "Measurement": 0.066}

Hi there! I need shrunken log2 fold change for each item below, if you can.
1. RRIRERPPRLPRPRPRPCYTPRP
2. RRIRKRPPRLPRPRPRPPACPRP
3. RRIRGRPPRLPRPRPRPIWRPRP
4. RRIRCRPPRLPRPRPRPGTGPRP
5. RRIRQRPPRLPRPRPRPRWFPRP

[-0.0917, 0.197, 0.744, 0.119, 0.0284]

====

Test system: Escherichia coli TOP10
Assay: shrunken log2 fold change of peptide-encoding DNA abundance (4.5 h post-induction vs induction); higher = less antimicrobial activity (less host growth inhibition)
Conditions: time post-induction: 4.5 h; library: site-saturation at positions 5, 18, 19, 20
Please note: Criterion met applies when shrunken log2 fold change is -0.02 or greater, and Criterion not met applies otherwise.

{"Construct sequence": "RRIRGRPPRLPRPRPRPGHLPRP", "Label class": "Criterion met"}
{"Construct sequence": "RRIRLRPPRLPRPRPRPHDFPRP", "Label class": "Criterion not met"}
{"Construct sequence": "RRIRQRPPRLPRPRPRPKIDPRP", "Label class": "Criterion not met"}
{"Construct sequence": "RRIRARPPRLPRPRPRPQYDPRP", "Label class": "Criterion met"}
{"Construct sequence": "RRIRERPPRLPRPRPRPTWFPRP", "Label class": "Criterion met"}

Could you now consider this next sequence?
Exam item: decide whether the reported shrunken log2 fold change for RRIRSRPPRLPRPRPRPHANPRP is at least -0.02.
Criterion not met

====

System: Escherichia coli TOP10;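 further: peptides expressed intracellularly from a pBAD plasmid library in pooled LB shake-flask culture, induced with 0.3% L-arabinose, DNA abundance read by NGS, three biological replicates, DESeq2 with apeglm shrinkage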
Test: shrunken log2 fold change of peptide-encoding DNA abundance (4.5 h post-induction vs induction); higher = less antimicrobial activity (less host growth inhibition)
Details: time post-induction: 4.5 h; library: site-saturation at positions 5, 18, 19, 20
Please note: true (1) applies when shrunken log2 fold change is -0.0005 or greater, and false (0) applies otherwise.

Below are worked cases with known answers.
{"Construct sequence": "RRIRHRPPRLPRPRPRPLMVPRP", "Tgt": "Escherichia coli TOP10", "Label class": "false (0)"}
{"Construct sequence": "RRIRRRPPRLPRPRPRPFAVPRP", "Tgt": "Escherichia coli TOP10", "Label class": "true (1)"}
{"Construct sequence": "RRIRKRPPRLPRPRPRPMVCPRP", "Tgt": "Escherichia coli TOP10", "Label class": "true (1)"}
{"Construct sequence": "RRIRYRPPRLPRPRPRPPTAPRP", "Tgt": "Escherichia coli TOP10", "Label class": "false (0)"}
{"Construct sequence": "RRIRARPPRLPRPRPRPEEKPRP", "Tgt": "Escherichia coli TOP10", "Label class": "true (1)"}
{"Construct sequence": "RRIRTRPPRLPRPRPRPDIDPRP", "Tgt": "Escherichia coli TOP10", "Label class": "true (1)"}

Exam item: decide whether the reported shrunken log2 fold change for RRIRSRPPRLPRPRPRPERDPRP is at least -0.0005.
true (1)

Exam item: decide whether the reported shrunken log2 fold change for RRIRKRPPRLPRPRPRPLYPPRP is at least -0.0005.
false (0)

Exam item: decide whether the reported shrunken log2 fold change for RRIRYRPPRLPRPRPRPSYCPRP is at least -0.0005.
false (0)
